System: rice
Assay: Safening effect against butachlor injury to rice, safening agent and herbicide incorporated in soil (Example 15, Table I)
Type: in vivo
Parameters: key: herbicide-alone + safener-alone effect (max 100) minus combined effect
Conditions: safening agent 8.96 kg/h; butachlor 6.72 kg/h; ~21 days
Procedure: A good grade of top soil is placed in a container and compacted to a depth of approximately 1.27 cm. from the top of said container. A predetermined number of rice seeds to be tested are placed on top of the soil. A quantity of soil sufficient to substantially fill the container is measured and placed in a second container. A measured quantity of the safening agent dispersed or dissolved in a suitable carrier is applied to the soil in the second container. […]
The reader will find reported Safening Effect values listed item by item below.
experimental readout: Safening Effect

> print(dat)
                                   compound  experimental.readout  test.result
1  CCOC(=O)c1sc(Cl)nc1-c1cccc(C)c1 [Example 6]       Safening Effect           65
2  CCOC(=O)c1sc(Cl)nc1-c1ccc(Cl)cc1 [Example 4]       Safening Effect           85
3  CCOC(=O)c1sc(Cl)nc1-c1ccccc1Cl [Example 5]       Safening Effect           65
4  CCOC(=O)c1sc(Cl)nc1-c1ccc(F)cc1 [Example 3]       Safening Effect           65
